# assay-details: Human HepG2 cell viability assay in 384 well format
# Type: toxicity, cell-based
# Set-up: dose 125 nL, time 70.5 hour; concentration not given beside the values
# test-settings: HepG2 cells, read-out: Inhibition
result-type: cytotoxicity at 70.5 h (%)

> print(dat)
                                    compound             result.type  experimental.value
 1  O=C(CCOCc1ccccc1)N1CCCC1c1noc(C2CC2)n1 (stereo not drawn)  cytotoxicity at 70.5 h               -2.09
 2  CCn1[nH]c(C)c2c(C(F)(F)C(F)(F)F)cc(=O)nc1-2  cytotoxicity at 70.5 h               -1.83
 3  O=S1(=O)[C@@H](c2ccccc2)[C@H](CO)CN1c1ccccc1  cytotoxicity at 70.5 h               -4.62
 4  CCC1CN(CC(=O)NCC(C)C)CCO1 (stereo not drawn)  cytotoxicity at 70.5 h               -10.6
 5  O=C(CCc1cccs1)N1CCCC1c1noc(C2CC2)n1 (stereo not drawn)  cytotoxicity at 70.5 h               -6.44
 6  COc1cccc(S(=O)(=O)N2CCC(O)(CN(C)C)C2)c1 (stereo not drawn)  cytotoxicity at 70.5 h               -19.7
 7  CCc1c(C(=O)N2CC(C)OC(C)(C)C2)cnn1-c1ccccn1 (stereo not drawn)  cytotoxicity at 70.5 h               -4.53
 8  CN(C(=O)c1ccc(S(=O)(=O)NC(C)(C)C)cc1)C1(C#N)CCC1  cytotoxicity at 70.5 h               -17.4
 9  CCN1CCO[C@@H]2CN(C(=O)NCc3ccccc3)CC[C@@H]2C1  cytotoxicity at 70.5 h               -4.68
10  Cc1nnc2n1CCN(C(=O)c1cc3cc(F)ccc3[nH]1)C2  cytotoxicity at 70.5 h               -12.8
11  COc1ccc(N2CCN(C(=O)COc3nccc(C)n3)CC2)cc1  cytotoxicity at 70.5 h               -3.87
12  CN1CCN(Cc2nnc(C3CCN(S(C)(=O)=O)CC3)n2C)CC1  cytotoxicity at 70.5 h               -20.6
13      OCCN1CCN(Cc2coc(-c3cccc(Cl)c3)n2)CC1  cytotoxicity at 70.5 h                24.5
14     CCc1nnc(CNc2ccc(CC(=O)N3CCSCC3)cc2)o1  cytotoxicity at 70.5 h                13.8
15    O=C(NCCN1CCOCC1)c1ccn(COc2ccc(F)cc2)n1  cytotoxicity at 70.5 h               -5.85
16      CCCN(CCC)S(=O)(=O)c1cc(NC(C)=O)ccc1C  cytotoxicity at 70.5 h                4.44
17           Cc1cc(C)n(C2CN(CCc3ccncc3)C2)n1  cytotoxicity at 70.5 h                42.3
18  O=C1CC(c2cccnc2)C2(CCN(C(=O)c3ccncc3)CC2)N1 (stereo not drawn)  cytotoxicity at 70.5 h               -1.04
19  Cc1ccc(OC2(C(=O)NC(C)Cc3ccsc3)CCNCC2)cc1 (stereo not drawn)  cytotoxicity at 70.5 h                7.16
20  Cc1ccc(C(=O)N2CCc3ncnc(-c4cnn(C)c4)c3CC2)cn1  cytotoxicity at 70.5 h               -2.36
21            N#Cc1ccc(F)c(CN2CCc3sccc3C2)c1  cytotoxicity at 70.5 h               -5.04
22  Cc1cc(C2CCC2)nc(N(C)Cc2cc(-c3ccccn3)no2)n1  cytotoxicity at 70.5 h               -6.04
23  Cc1ccc(OC2(C(=O)O)CCN(C(=O)c3ccc(F)cc3)CC2)cn1  cytotoxicity at 70.5 h                -7.2
24       CC[C@H]1COCCN1C(=O)c1cnc(C(C)C)nc1C  cytotoxicity at 70.5 h                16.6
25  Cc1nn(C)c(C)c1C(=O)NCc1cc(N(C)C)nc2ccccc12  cytotoxicity at 70.5 h                27.3
26  CN(C)CCCNC(=O)c1ccccc1NC(=O)c1cc(Cl)ccc1Cl  cytotoxicity at 70.5 h               -13.9
27      CCNC(=O)CNCc1c(C(C)C)nn(C)c1N1CCOCC1  cytotoxicity at 70.5 h                -2.6
28  O=C(c1ccnnc1)N1CC[C@H]2C[C@H](c3ccncn3)O[C@@H]2C1  cytotoxicity at 70.5 h                 5.3
29  Cc1csc(C2CCCCN2C(=O)CN(C)C2CC2)n1 (stereo not drawn)  cytotoxicity at 70.5 h               -8.97
30  N#Cc1cc(N2CCC(CS(N)(=O)=O)CC2)nc2ccccc12  cytotoxicity at 70.5 h                1.54
31  Cc1nc(CN2CCO[C@H]3CN(C(=O)c4ccncc4)C[C@H]32)cs1  cytotoxicity at 70.5 h                 6.5
32  COCC(NC(=O)c1ccc(O)nc1)c1ccc(C)o1 (stereo not drawn)  cytotoxicity at 70.5 h               0.572
33  Cc1ccc(NC(=O)C2CCCN2C(=O)C2CC2)nc1 (stereo not drawn)  cytotoxicity at 70.5 h               -3.51
34  CCc1csc(C2CCCN(C(=O)CCn3cc(C)cn3)C2)n1 (stereo not drawn)  cytotoxicity at 70.5 h                17.5
35  O=S(=O)(CCN1CCOC(Cn2cccn2)C1)c1ccccc1 (stereo not drawn)  cytotoxicity at 70.5 h               -7.12
36  CCc1nnc(CNC(=O)CCC2CCCCN2C)s1 (stereo not drawn)  cytotoxicity at 70.5 h                6.71
37    CO[C@H]1CCN(Cc2nccs2)C[C@@H]1Cc1ccccc1  cytotoxicity at 70.5 h              -0.233
38      Cc1noc(C)c1CS(=O)(=O)Cc1nc(C2CC2)no1  cytotoxicity at 70.5 h              -0.106
39          CN(C)Cc1n[nH]c2c1CCN(Cc1cccs1)C2  cytotoxicity at 70.5 h               -4.47
40  COCCN1CC(c2nc(CSC)no2)CCC1=O (stereo not drawn)  cytotoxicity at 70.5 h                2.97
41  Cc1cc(C)n(CCCC(=O)N2CC[C@H]3NCCC[C@]3(CO)C2)n1  cytotoxicity at 70.5 h               -2.14
42  Cc1ccc(N2CCCC(NCc3cccc4c3OCCO4)C2)nn1 (stereo not drawn)  cytotoxicity at 70.5 h               -4.41
43  Cn1cc(CN2CC[C@@H](NS(C)(=O)=O)[C@@H]2Cc2cccnc2)cn1  cytotoxicity at 70.5 h               -12.3
44   O=C1CCCN1c1cccc(CNCc2nc(-c3ccco3)no2)c1  cytotoxicity at 70.5 h               -17.4
45       Cc1ccc(CN2CCc3c(CN(C)C)n[nH]c3C2)s1  cytotoxicity at 70.5 h              -0.649
46  N#Cc1ccc(OCC(O)CN2CCc3cncnc3C2)cc1 (stereo not drawn)  cytotoxicity at 70.5 h                 2.9
47                  CCOCCCNC(=O)Cc1cccc(F)c1  cytotoxicity at 70.5 h                1.71
48  c1cnnc(N2CCCC2CNCc2cccs2)c1 (stereo not drawn)  cytotoxicity at 70.5 h               -1.72
